tested on: INS-1 cells; test: WST-1 cell viability test, pancreatic neuroendocrine tumor cell line INS-1; assay type: cell-based; details: Rattus norvegicus, INS1, 24 hours incubation
pIC50: −log10 of the molar value.
value.type: pIC50

Exercise: For the compound N=C(Nc1ccccc1)SCCCCCCSC(=N)Nc1ccccc1 [compound 1] , give its measured pIC50 value.
Key: > 5.00
